Reference for the values: patent US8748624B2

- measurement target: UniProtKB P47871
- assay protocol: Inhibition of 125I-glucagon binding to membranes from HEK293 cells expressing the human glucagon receptor
- experimental conditions: membranes of hGluc-1 HEK cells, 125I-glucagon 0.3 nM, 2 hours room temperature; IC50 converted to Ki; average if tested more than once
For each entry below, report its pKi value.
Answers are plain numbers, as −log10 of the molar value.

Take a look at these entries with their results.
Q: Identify the measured pKi of O=C(O)CCNC(=O)c1ccc(-c2cc(Cl)ccc2CNc2ccc(-c3ccc(Cl)cc3)c(Cl)c2)cn1 for UniProtKB P47871.
Result: 7.51

Q: Field: pKi (UniProtKB P47871). Entry: O=C(O)CCNC(=O)c1ccc(-c2ccc(Cl)cc2CNc2ccc(-c3ccc(Cl)cc3)cc2)cn1
Result: 7.19

Q: Test system UniProtKB P47871; read-out pKi; what value for Cc1ccc(-c2ccc(NCc3ccc(Cl)cc3-c3ccc(C(=O)NCCC(=O)O)nc3)cc2Cl)cc1 ?
Result: 7.57

Q: Quick check: pKi on UniProtKB P47871, item O=C(O)CCNC(=O)c1ccc(-c2cc(F)ccc2CNc2ccc(-c3ccc(Cl)c(Cl)c3)c(F)c2)cn1 ?
Result: 6.99

Q: What pKi appears in the records for this molecule with UniProtKB P47871? O=C(O)CCNC(=O)c1ccc(-c2cc(Cl)ccc2CNc2ccc(-c3ccc(F)cc3)c(F)c2)cn1
Result: 7.35

Q: Record lookup: for UniProtKB P47871, what pKi belongs to O=C(O)CCNC(=O)c1ccc(-c2cc(C(F)(F)F)ccc2CNc2ccc(-c3ccc(C(F)(F)F)c(F)c3)c(Cl)c2)cn1 ?
Result: 7.58

# evaluate next
Q: For the record COc1ccc(-c2ccc(C(=O)NCCC(=O)O)nc2)c(CNc2ccc(-c3ccc(Cl)cc3Cl)cc2)c1 , what value of pKi is listed for UniProtKB P47871?
Result: 6.71

====

- measurement target: human glucagon receptor (GCGR) (Homo sapiens (Human), UniProt P47871)
- Sequence (P47871 26-477): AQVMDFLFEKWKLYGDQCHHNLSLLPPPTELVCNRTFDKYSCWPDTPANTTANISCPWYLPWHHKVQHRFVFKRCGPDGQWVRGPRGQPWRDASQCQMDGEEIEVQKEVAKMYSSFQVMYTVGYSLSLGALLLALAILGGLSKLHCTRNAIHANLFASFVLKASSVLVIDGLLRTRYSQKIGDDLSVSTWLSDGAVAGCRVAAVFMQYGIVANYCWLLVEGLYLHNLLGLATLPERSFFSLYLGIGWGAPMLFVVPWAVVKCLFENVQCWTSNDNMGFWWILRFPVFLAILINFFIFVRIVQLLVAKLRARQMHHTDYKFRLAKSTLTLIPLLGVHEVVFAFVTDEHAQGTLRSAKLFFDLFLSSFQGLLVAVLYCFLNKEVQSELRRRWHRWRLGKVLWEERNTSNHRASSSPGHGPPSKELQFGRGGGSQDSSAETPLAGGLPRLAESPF
- assay protocol: Inhibition of 125I-glucagon binding to membranes from HEK293 cells expressing the human glucagon receptor
- experimental conditions: membranes of hGluc-1 HEK cells, 125I-glucagon 0.3 nM, 2 hours room temperature; IC50 converted to Ki; average if tested more than once
Response field label: string, one of T (Ki strictly below 30 nM) or F.

Q: Answer whether the molecule O=C(O)CCNC(=O)c1ccc(-c2cc(C(F)(F)F)ccc2CNc2ccc(-c3ccc(C(F)(F)F)cc3Cl)cc2)cn1 has Ki strictly less than 30 nM
Result: T

Q: Please let me know if C=C(C)c1ccc(CNc2ccc(-c3ccc(F)cc3)cc2)c(-c2ccc(C(=O)NCCC(=O)O)nc2)c1 shows Ki below 30 nM.
Result: F

Q: Is the reported Ki for O=C(O)CCNC(=O)c1ccc(-c2cc(Cl)ccc2CNc2ccc(-c3ccc(F)cc3)cc2)cn1 strictly below 30 nM?
Result: F

Q: Lab note: confirm whether the reported Ki for this molecule is below 30 nM, equality not counting. molecule: O=C(O)CCNC(=O)c1ccc(-c2cc(Cl)ccc2CNc2ccc(-c3ccccc3OC(F)(F)F)cc2)cn1
Result: F

Q: Determine whether this molecule shows Ki lower than 30 nM (ties excluded): Cc1cc(Cl)ccc1-c1ccc(NCc2c(Cl)cc(C(F)(F)F)cc2-c2ccc(C(=O)NCCC(=O)O)nc2)cc1
Result: T

More entries:
Q: Hello, is Ki of the following molecule strictly smaller than 30 nM? O=C(O)CCNC(=O)c1ccc(-c2cc(Cl)ccc2CNc2ccc(-c3ccc(F)cc3F)c(Cl)c2)cn1
Result: T

Q: In plain terms, does O=C(O)CCNC(=O)c1ccc(-c2cc(Cl)ccc2CNc2ccc(-c3ccc(F)cc3Cl)cc2)cn1 come in under 30 nM for Ki?
Result: F

====

- measurement target: human GCGR (Homo sapiens (Human), UniProt P47871)
- assay protocol: Cellular functional assay, cAMP readout (glucagon-stimulated cAMP in HEK293 cells expressing human GCGR)
- Format: cell-based
- experimental conditions: hGluc-1 HEK cells, LANCE TR-FRET, IC50 converted to Ki, average if tested more than once
pKi: −log10 of the molar value.
Cut-off 7 on pKi, inclusive. At or above means class 1; below means class 0.

Examples with answers:
Q: Given O=C(O)CCNC(=O)c1ccc(-c2cc(C(F)(F)F)cc(C(F)(F)F)c2CNc2ccc(-c3c(Cl)cccc3Cl)cc2)cn1 [Compound 85] , state whether its pKi is at least 7.
Result: class 1

Q: Identify whether the reported pKi of the following compound is 7 or greater: O=C(O)CCNC(=O)c1ccc(-c2cc(Cl)ccc2CNc2ccc(-c3ccccc3Cl)cc2)cn1 [Compound 135]
Result: class 0

Q: Dear colleague, could you confirm whether O=C(O)CCNC(=O)c1ccc(-c2ccccc2CNc2ccc(-c3ccc(Cl)cc3)cc2)cn1 [Compound 2] has pKi at or above 7?
Result: class 0

Others:
Q: Could you tell me if the measured pKi of O=C(O)CCNC(=O)c1ccc(-c2cc(C(F)(F)F)cc(C(F)(F)F)c2CNc2ccc(-c3ccc(Cl)cc3)c(Cl)c2)cn1 [Compound 76] reaches 7 or more?
Result: class 1

Q: Evaluate COc1cc(C(F)(F)F)cc(-c2ccc(C(=O)NCCC(=O)O)nc2)c1CNc1ccc(-c2ccc(C(F)(F)F)cc2)c(Cl)c1 [Compound 159] : pKi at minimum 7?
Result: class 1

====

Kindly state Ki for each of the entries shown.
- measurement target: human GCGR (Homo sapiens (Human), UniProt P47871)
- assay protocol: Cellular functional assay, cAMP readout (glucagon-stimulated cAMP in HEK293 cells expressing human GCGR)
- Format: cell-based
- experimental conditions: hGluc-1 HEK cells, LANCE TR-FRET, IC50 converted to Ki, average if tested more than once

A selection of reference data follows.
Q: Which measured Ki value corresponds to O=C(O)CCNC(=O)c1ccc(-c2cc(C(F)(F)F)ccc2CNc2ccc(-c3cccc(C(F)(F)F)c3Cl)c(Cl)c2)cn1 ?
Result: 22.4 nM

Q: Find the recorded Ki belonging to COc1ccc(CNc2ccc(-c3ccc(C(F)(F)F)cc3)cc2)c(-c2ccc(C(=O)NCCC(=O)O)nc2)c1 and report it.
Result: > 20000 nM

Q: Data request, read-out Ki, for Cc1cc(C(F)(F)F)ccc1-c1ccc(NCc2ccc(C(F)(F)F)cc2-c2ccc(C(=O)NCCC(=O)O)nc2)cc1
Result: 19.4 nM

Below is a list of compounds. For each, state its recorded Ki.
1. O=C(O)CCNC(=O)c1ccc(-c2cc(F)ccc2CNc2ccc(-c3ccc(C(F)(F)F)cc3)c(F)c2)cn1
2. Cc1cc(Cl)ccc1-c1ccc(NCc2ccc(C(F)(F)F)cc2-c2ccc(C(=O)NCCC(=O)O)nc2)cc1
3. N#Cc1cc(NCc2ccc(Cl)cc2-c2ccc(C(=O)NCCC(=O)O)nc2)ccc1-c1ccc(F)c(C(F)(F)F)c1

Result:
1. 309 nM
2. 22.4 nM
3. 135 nM

// batch mode: one Ki value per listed entry
1. Cc1cccc(-c2ccc(C(=O)NCCC(=O)O)nc2)c1CNc1ccc(-c2ccc(Cl)cc2)cc1
2. O=C(O)CCNC(=O)c1ccc(-c2cc(F)c(F)cc2CNc2ccc(-c3ccc(Cl)cc3F)c(Cl)c2)cn1

Result:
["390 nM", "84.4 nM"]

Give Ki for each listed item.
1. O=C(O)CCNC(=O)c1ccc(-c2cc(C3CCCCC3)ccc2CNc2ccc(-c3ccc(F)cc3)cc2)cn1
2. O=C(O)CCNC(=O)c1ccc(-c2cc(C(F)(F)F)c(Cl)cc2CNc2ccc(-c3ccc(Cl)cc3)cc2)cn1

Result:
1. 45.8 nM
2. 47.4 nM

====

- measurement target: human GCGR (Homo sapiens (Human))
- assay protocol: Cellular functional assay, cAMP readout (glucagon-stimulated cAMP in HEK293 cells expressing human GCGR)
- Format: cell-based
- experimental conditions: hGluc-1 HEK cells, LANCE TR-FRET, IC50 converted to Ki, average if tested more than once
endpoint name: pKi
One number for each entry, as −log10 of the molar value.

Examples from the recorded data:
Q: Look up pKi for this molecule: O=C(O)CCNC(=O)c1ccc(-c2cc(Cl)ccc2C(=O)Nc2ccc(-c3ccc(F)cc3F)cc2)cn1
Result: 7.02

Q: Record request: pKi value, item N#Cc1cc(NCc2ccc(Cl)cc2-c2ccc(C(=O)NCCC(=O)O)nc2)ccc1-c1cccc(C(F)(F)F)c1Cl
Result: 7.02

Q: What pKi value was documented for this molecule, O=C(O)CCNC(=O)c1ccc(-c2cc(Cl)ccc2CNc2ccc(-c3cccc(C(F)(F)F)c3)c(Cl)c2)cn1 ?
Result: 7.18

Give pKi for each of the items listed below.
1. Cc1ccc(C(=O)Nc2ccc(-c3ccc(Cl)cc3)cc2)c(-c2ccc(C(=O)NCCC(=O)O)nc2)c1
2. Cc1ccc(-c2ccc(NCc3ccc(Cl)cc3-c3ccc(C(=O)NCCC(=O)O)nc3)cc2Cl)cc1

Result:
[7.17, 7.16]
